Hello, the source for this data is ChEMBL document CHEMBL3585293, in case you need it.

Experiment: Cytotoxicity against HEL cells assessed as alternation of cell morphology by microscopic analysis
Assay type: cell-based
Conditions: human
Exercise: for every item that follows, state its recorded MCC.

For every listed record, write down its MCC.
1. O=c1[nH]c(=O)n([C@H]2C[C@H](O)[C@@H](CO)O2)cc1/C=C/Br
2. CCOP(=O)(OCC)[C@@H]1C[C@H](C(=O)Nc2cc3c4c(cccc4c2)C(=O)N(CCN2CCCC2)C3=O)ON1C (racemic)
3. CCCCN1C(=O)c2cccc3cc(NC(=O)[C@H]4C[C@@H](P(=O)(OCC)OCC)N(C)O4)cc(c23)C1=O (racemic)
4. CCOP(=O)(OCC)[C@@H]1C[C@@H](C(=O)Nc2cc3c4c(cccc4c2)C(=O)N(CCN(C)C)C3=O)ON1C (racemic)

1. > 250 µM
2. ≥ 100 µM
3. ≥ 100 µM
4. ≥ 100 µM

For every listed record, write down its MCC.
1. CCCCN1C(=O)c2cccc3cc(NC(=O)[C@@H]4C[C@@H](P(=O)(OCC)OCC)N(C)O4)cc(c23)C1=O (racemic)
2. CCCN1C(=O)c2cccc3cc(NC(=O)[C@@H]4C[C@@H](P(=O)(OCC)OCC)N(C)O4)cc(c23)C1=O (racemic)

≥ 100 µM
> 100 µM
